Test system: Amaranthus retroflexus (AMARE)
experimentalProtocol: Example B1 herbicidal action, post-emergence, 96-cell seed trays, climatic chamber
Type: in vivo
reportedConditions: Application post-emergence, 1000 mg/l spray equivalent to 1000 g/ha, evaluated after 9 days
outcomeMeasure: damage to plant, Amaranthus retroflexus (AMARE)

compound: CCC(C)C(=O)Oc1c(-c2c(F)ccc(F)c2Cl)c(=O)n(C)c2nccnc12 (stereo not drawn) [Compound C87]
experimentalSystem: Amaranthus retroflexus (AMARE)
reported: 6
--
compound: CC(C)C(=O)Oc1c(-c2cc(C(F)(F)F)ccc2Cl)c(=O)n(C)c2nccnc12 [Compound C118]
experimentalSystem: Amaranthus retroflexus (AMARE)
reported: 6
--
compound: CCn1c(=O)c(-c2cccc(C(F)(F)F)c2Cl)c(OC(=O)C(C)C)c2nccnc21 [Compound C78]
experimentalSystem: Amaranthus retroflexus (AMARE)
reported: 6

---

Tested on: Amaranthus retroflexus (AMARE)
experimentalProtocol: Example B1 herbicidal action, post-emergence, 96-cell seed trays, climatic chamber
Assay type: in vivo
reportedConditions: Application post-emergence, 1000 mg/l spray equivalent to 1000 g/ha, evaluated after 9 days
outcomeMeasure: damage to plant, Amaranthus retroflexus (AMARE)

compound: CCOC(=O)Oc1c(-c2c(Cl)cccc2Cl)c(=O)n(C)c2nccnc12 [Compound C36]
reported: 5
//
compound: Cn1c(=O)c(-c2cc(C(F)(F)F)ccc2Cl)c(OC(=O)C(C)(C)C)c2nccnc21 [Compound C121]
reported: 5
//
compound: Cc1ccc(Cl)c(-c2c(OC(=O)C(C)(C)C)c3nccnc3[nH]c2=O)c1F [Compound B37]
reported: 0
//
compound: O=c1[nH]c2nccnc2c(O)c1-c1ccc(Cl)cc1Cl [Compound A1]
reported: 0
//
compound: CC(C)n1c(=O)c(-c2ccccc2OC(F)(F)F)c(OC(=O)C(C)(C)C)c2nccnc21 [Compound C23]
reported: 0
//
compound: CC(=O)Oc1c(-c2ccccc2OC(F)(F)F)c(=O)[nH]c2nccnc12 [Compound B8]
reported: 1
//
compound: CC(C)C(=O)Oc1c(-c2ccc(F)cc2Cl)c(=O)[nH]c2nccnc12 [Compound B2]
reported: 5
//
compound: O=c1[nH]c2nccnc2c(O)c1-c1ccc(F)cc1Br [Compound A18]
reported: 6
//
compound: CC(=O)Oc1c(-c2ccc(Cl)cc2Cl)c(=O)n(C)c2nccnc12 [Compound C43]
reported: 3
//
compound: Cc1ccc(F)c(-c2c(O)c3nccnc3[nH]c2=O)c1Cl [Compound A35]
reported: 4
//
compound: CCc1cc(C)cc(CC)c1-c1c(OC(=O)C(C)C)c2nccnc2n(C)c1=O [Compound C65]
reported: 4
//
compound: C=CCC(=O)Oc1c(-c2c(F)ccc(F)c2Cl)c(=O)n(CC=C)c2nccnc12 [Compound C113]
reported: 7
//
compound: O=c1[nH]c2nccnc2c(O)c1-c1cc(C(F)(F)F)ccc1Cl [Compound A34]
reported: 6
//
compound: CC(C)C(=O)c1c(-c2c(Cl)cccc2Cl)c(=O)n(C)c2nccnc12 [Compound C56]
reported: 8
//
compound: CC(C)C(=O)Oc1c(-c2c(F)ccc(F)c2Cl)c(=O)n(CC2CC2)c2nccnc12 [Compound C60]
reported: 7
//
compound: CC(C)C(=O)Oc1c(-c2ccccc2C(F)(F)F)c(=O)n(C)c2nccnc12 [Compound C110]
reported: 7
//
compound: Cn1c(=O)c(-c2ccc3ccccc3c2)c(OC(=O)C(C)(C)C)c2nccnc21 [Compound C52]
reported: 0
//
compound: CCn1c(=O)c(-c2ccccc2Cl)c(OC(C)=O)c2nccnc21 [Compound C185]
reported: 4
//
compound: CCC(=O)Oc1c(-c2c(Cl)cccc2Cl)c(=O)n(CC)c2nccnc12 [Compound C31]
reported: 8
//
compound: O=C(Oc1c(-c2c(F)ccc(F)c2Cl)c(=O)[nH]c2nccnc12)c1ccc([N+](=O)[O-])cc1 [Compound B40]
reported: 6

---

Test system: Nasturtium officinale (NAAOF)
experimentalProtocol: Example B1 herbicidal action, post-emergence, 96-cell seed trays, climatic chamber
Format: in vivo
Parameters: scale not given here
reportedConditions: Application post-emergence, 1000 mg/l spray equivalent to 1000 g/ha, evaluated after 9 days (100=total damage to plant, 0=no damage to plant)
outcomeMeasure: damage to plant, Nasturtium officinale (NAAOF)

molecule: CCC(C)C(=O)Oc1c(-c2c(F)ccc(F)c2Cl)c(=O)n(C)c2nccnc12 (centres unmarked)
reported: 4
//
molecule: O=c1[nH]c2nccnc2c(O)c1-c1ccc(F)cc1C(F)(F)F
reported: 7
//
molecule: Cc1ccc(Cl)c(-c2c(OC(=O)C(C)(C)C)c3nccnc3n(C)c2=O)c1F
reported: 2
//
molecule: C=CCn1c(=O)c(-c2c(F)ccc(F)c2Cl)c(OC(C)=O)c2nccnc21
reported: 8
//
molecule: O=c1[nH]c2nccnc2c(O)c1-c1c(Cl)ccc(Cl)c1Cl
reported: 6

---

Tested on: Nasturtium officinale (NAAOF)
experimentalProtocol: Example B1 herbicidal action, post-emergence, 96-cell seed trays, climatic chamber
Assay type: in vivo
Design: scale not given here
reportedConditions: Application post-emergence, 1000 mg/l spray equivalent to 1000 g/ha, evaluated after 9 days (100=total damage to plant, 0=no damage to plant)
Lab note - cut at 7 for damage to plant, Nasturtium officinale (NAAOF): rule met if strictly below, rule not met if not.

compound: CC(C)C(=O)Oc1c(-c2c(Cl)ccc(Cl)c2Cl)c(=O)n(C)c2nccnc12
labelClass: rule met

compound: Cc1cc(C)c(-c2c(OC(=O)C(C)C)c3nccnc3n(C)c2=O)c(C)c1
labelClass: rule met

compound: Cn1c(=O)c(-c2cccc(C(F)(F)F)c2Cl)c(OC(=O)C(C)(C)C)c2nccnc21
labelClass: rule met

compound: CCn1c(=O)c(-c2c(F)ccc(F)c2Cl)c(OC(=O)CC(C)(C)C)c2nccnc21
labelClass: rule met

compound: C=CCn1c(=O)c(-c2ccccc2OC(F)(F)F)c(OC(=O)C(C)(C)C)c2nccnc21
labelClass: rule met

compound: CCn1c(=O)c(-c2ccc(Cl)cc2Cl)c(OC(=O)C(C)(C)C)c2nccnc21
labelClass: rule not met

compound: O=c1[nH]c2nccnc2c(O)c1-c1cc(Cl)ccc1Cl
labelClass: rule met

compound: O=c1[nH]c2nccnc2c(O)c1-c1ccc(Cl)cc1Cl
labelClass: rule met

compound: O=c1[nH]c2nccnc2c(O)c1-c1ccccc1OC(F)(F)F
labelClass: rule met

compound: Cn1c(=O)c(-c2c(F)ccc(F)c2Cl)c(OC(=O)C(C)(C)C)c2nccnc21
labelClass: rule met

compound: C=CCn1c(=O)c(-c2c(Cl)cccc2Cl)c(OC(=O)OCC)c2nccnc21
labelClass: rule met

compound: CCCCC(CC)C(=O)Oc1c(-c2c(F)ccc(F)c2Cl)c(=O)n(C)c2nccnc12 (stereo not shown)
labelClass: rule met

compound: Cn1c(=O)c(-c2ccc(Cl)cc2Cl)c(O)c2nccnc21
labelClass: rule not met

compound: Cc1ccc(F)c(-c2c(OC(=O)C(C)(C)C)c3nccnc3n(C)c2=O)c1Cl
labelClass: rule met

compound: Cn1c(=O)c(-c2c(F)ccc(F)c2Cl)c(OC(=O)c2cccs2)c2nccnc21
labelClass: rule met

compound: CC(C)C(=O)Oc1c(-c2ccc(Cl)cc2Cl)c(=O)n(C)c2nccnc12
labelClass: rule not met
